All figures here come from ChEMBL document CHEMBL1157406.

Biological target: Insulin-like growth factor 1 receptor (Homo sapiens, UniProt P08069)
Sequence (P08069 31-736 limits assumed): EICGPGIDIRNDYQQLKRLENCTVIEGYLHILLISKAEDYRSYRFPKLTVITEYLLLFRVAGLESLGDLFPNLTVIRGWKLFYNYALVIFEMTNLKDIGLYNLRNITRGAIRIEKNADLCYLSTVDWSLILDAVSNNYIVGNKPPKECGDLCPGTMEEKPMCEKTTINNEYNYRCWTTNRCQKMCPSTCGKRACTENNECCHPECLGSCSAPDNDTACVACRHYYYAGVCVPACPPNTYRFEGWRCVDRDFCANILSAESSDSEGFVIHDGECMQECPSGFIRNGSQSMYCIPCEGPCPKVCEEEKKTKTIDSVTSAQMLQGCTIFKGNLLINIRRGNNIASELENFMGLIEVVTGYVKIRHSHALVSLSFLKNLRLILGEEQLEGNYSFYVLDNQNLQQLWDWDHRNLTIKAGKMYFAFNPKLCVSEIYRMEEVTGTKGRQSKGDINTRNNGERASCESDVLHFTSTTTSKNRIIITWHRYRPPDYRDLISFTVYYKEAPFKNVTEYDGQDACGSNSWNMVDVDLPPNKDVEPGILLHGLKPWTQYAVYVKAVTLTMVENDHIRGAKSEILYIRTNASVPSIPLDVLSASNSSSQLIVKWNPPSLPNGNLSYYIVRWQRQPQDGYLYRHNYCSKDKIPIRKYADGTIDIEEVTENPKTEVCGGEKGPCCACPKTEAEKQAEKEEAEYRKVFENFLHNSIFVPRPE
Sequence (P08069 741-1367 limits assumed): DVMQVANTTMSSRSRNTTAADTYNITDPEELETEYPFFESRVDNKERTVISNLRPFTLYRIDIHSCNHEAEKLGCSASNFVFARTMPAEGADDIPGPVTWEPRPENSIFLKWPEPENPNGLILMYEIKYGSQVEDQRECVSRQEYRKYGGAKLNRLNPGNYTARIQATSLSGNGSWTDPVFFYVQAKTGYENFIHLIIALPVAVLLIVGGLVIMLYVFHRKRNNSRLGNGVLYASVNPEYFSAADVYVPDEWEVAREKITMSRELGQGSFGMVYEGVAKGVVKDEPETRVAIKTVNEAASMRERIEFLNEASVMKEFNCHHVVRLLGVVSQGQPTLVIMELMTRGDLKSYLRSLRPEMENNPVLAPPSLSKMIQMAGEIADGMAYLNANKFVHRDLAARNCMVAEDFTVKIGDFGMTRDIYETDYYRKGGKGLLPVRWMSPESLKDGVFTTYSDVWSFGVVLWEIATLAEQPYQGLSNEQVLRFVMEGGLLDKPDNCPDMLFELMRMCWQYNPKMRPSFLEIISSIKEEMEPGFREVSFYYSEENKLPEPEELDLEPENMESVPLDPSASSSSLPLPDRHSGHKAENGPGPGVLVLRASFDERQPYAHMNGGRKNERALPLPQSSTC
Assay: Inhibition of recombinant IGF1R
Conditions: read-out: IC50 (converted)
Returns: string. Value is class 1 if measured IC50 is below 10 µM, and class 0 if it is greater than or equal to it.

# compound, label
measured = [
    ("COc1cc(O)c(C(=O)O)c(-c2cc(O)c(O)cc2C)c1 [ALTENUSIN]", "class 0"),
    ("COc1cc(O)c(C(=O)O)c(C2=C(C)C[C@@H](O)C2=O)c1 [ALTERNARIENONIC ACID]", "class 0"),
    ("Cc1cc(O)cc2oc(=O)c3c(O)cc(OS(=O)(=O)O)cc3c12", "class 0"),
    ("COc1cc(O)c2c(=O)oc3cc(O)cc(C)c3c2c1", "class 1"),
    ("Cc1cc(O)c(O)cc1-c1cc(O)cc(O)c1C(=O)O", "class 1"),
    ("Cc1cc(O)cc2oc(=O)c3c(O)cc(O)cc3c12 [ALTERNARIOL]", "class 0"),
    ("O=C1C[C@H](O)[C@@H]2c3c(ccc(O)c31)-c1ccc(O)c3c1[C@@]2(O)CCC3=O [ALTERTOXIN I]", "class 1"),
]

* * *

Recorded IC50 values for a group of molecules are listed next.
Target: Aurora kinase B (Homo sapiens)
Sequence (Q96GD4 whole entry): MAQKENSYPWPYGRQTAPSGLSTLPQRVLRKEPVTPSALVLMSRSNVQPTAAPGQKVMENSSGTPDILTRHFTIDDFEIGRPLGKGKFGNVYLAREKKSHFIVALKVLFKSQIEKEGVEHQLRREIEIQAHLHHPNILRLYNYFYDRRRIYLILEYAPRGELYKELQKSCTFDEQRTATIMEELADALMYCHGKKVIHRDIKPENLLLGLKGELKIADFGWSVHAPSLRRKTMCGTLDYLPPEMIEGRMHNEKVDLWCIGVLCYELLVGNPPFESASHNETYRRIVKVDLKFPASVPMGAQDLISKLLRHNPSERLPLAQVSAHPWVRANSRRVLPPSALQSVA
Assay: Inhibition of recombinant Aurora B
endpoint: IC50 (×10⁻⁷ g/ml)

# chemical smiles, assayed system, endpoint, reported result
data = [
    ("Cc1cc(O)cc2oc(=O)c3c(O)cc(OS(=O)(=O)O)cc3c12", "Aurora kinase B (Homo sapiens)", "IC50", 2.2),
    ("Cc1cc(O)cc2oc(=O)c3c(O)cc(O)cc3c12", "Aurora kinase B (Homo sapiens)", "IC50", 4.2),
    ("O=C1C[C@H](O)[C@@H]2c3c(ccc(O)c31)-c1ccc(O)c3c1[C@@]2(O)CCC3=O", "Aurora kinase B (Homo sapiens)", "IC50", 9.8),
]

* * *

Molecular target: Insulin receptor (Homo sapiens)
Sequence (P06213 28-758 limits assumed): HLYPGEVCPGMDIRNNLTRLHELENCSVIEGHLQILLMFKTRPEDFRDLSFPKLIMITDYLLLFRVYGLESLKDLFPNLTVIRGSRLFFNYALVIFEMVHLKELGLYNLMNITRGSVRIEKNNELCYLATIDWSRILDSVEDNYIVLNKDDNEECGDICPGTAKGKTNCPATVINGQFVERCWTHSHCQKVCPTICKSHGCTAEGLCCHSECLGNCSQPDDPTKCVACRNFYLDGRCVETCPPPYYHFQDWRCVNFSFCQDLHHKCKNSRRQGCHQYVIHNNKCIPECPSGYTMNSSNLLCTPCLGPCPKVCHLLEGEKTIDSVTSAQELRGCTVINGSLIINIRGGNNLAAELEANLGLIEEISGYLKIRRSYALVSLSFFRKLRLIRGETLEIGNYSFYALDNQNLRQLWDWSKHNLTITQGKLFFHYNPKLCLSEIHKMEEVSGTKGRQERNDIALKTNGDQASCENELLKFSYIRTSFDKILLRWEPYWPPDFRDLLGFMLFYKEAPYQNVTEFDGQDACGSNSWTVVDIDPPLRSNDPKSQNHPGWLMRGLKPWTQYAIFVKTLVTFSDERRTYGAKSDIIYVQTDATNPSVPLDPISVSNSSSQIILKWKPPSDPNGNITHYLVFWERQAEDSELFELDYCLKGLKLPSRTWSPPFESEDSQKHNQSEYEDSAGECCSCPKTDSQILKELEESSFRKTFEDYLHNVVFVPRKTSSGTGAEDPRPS
Sequence (P06213 763-1382 limits assumed): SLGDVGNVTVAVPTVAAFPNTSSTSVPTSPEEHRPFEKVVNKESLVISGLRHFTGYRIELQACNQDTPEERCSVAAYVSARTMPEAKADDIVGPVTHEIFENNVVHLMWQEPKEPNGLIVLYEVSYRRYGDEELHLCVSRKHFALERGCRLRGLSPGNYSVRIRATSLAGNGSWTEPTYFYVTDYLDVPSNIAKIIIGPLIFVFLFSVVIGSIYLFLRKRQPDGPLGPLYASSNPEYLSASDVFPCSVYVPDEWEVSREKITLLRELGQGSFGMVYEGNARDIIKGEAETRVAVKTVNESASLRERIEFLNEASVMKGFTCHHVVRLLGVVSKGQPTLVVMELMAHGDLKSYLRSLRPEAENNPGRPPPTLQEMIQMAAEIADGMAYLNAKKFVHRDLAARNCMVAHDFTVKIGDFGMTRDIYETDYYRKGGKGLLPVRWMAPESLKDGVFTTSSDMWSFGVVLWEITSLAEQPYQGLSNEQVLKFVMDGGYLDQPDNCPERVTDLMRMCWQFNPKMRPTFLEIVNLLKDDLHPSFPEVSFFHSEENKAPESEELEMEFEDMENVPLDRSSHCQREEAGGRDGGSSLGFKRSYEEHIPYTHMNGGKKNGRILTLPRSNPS
Assay: Inhibition of recombinant INSR
Details: read-out: IC50 (converted)
Recorded IC50 values for a group of molecules are listed next.
endpoint: IC50 (µM)

# molecule, reported result
records = [
    ("COc1cc(O)c(C(=O)O)c(-c2cc(O)c(O)cc2C)c1 [ALTENUSIN]", 19.3),
    ("COc1cc(O)c(C(=O)O)c(C2=C(C)C[C@@H](O)C2=O)c1 [ALTERNARIENONIC ACID]", 29.1),
    ("Cc1cc(O)cc2oc(=O)c3c(O)cc(OS(=O)(=O)O)cc3c12", 8.57),
    ("COc1cc(O)c2c(=O)oc3cc(O)cc(C)c3c2c1", 29),
    ("COc1cc(O)c2c(=O)oc3c(O)c(O)cc(C)c3c2c1", 4.51),
]

* * *

Target: Proto-oncogene tyrosine-protein kinase Src (Homo sapiens)
Sequence (P12931 2-536 limits assumed): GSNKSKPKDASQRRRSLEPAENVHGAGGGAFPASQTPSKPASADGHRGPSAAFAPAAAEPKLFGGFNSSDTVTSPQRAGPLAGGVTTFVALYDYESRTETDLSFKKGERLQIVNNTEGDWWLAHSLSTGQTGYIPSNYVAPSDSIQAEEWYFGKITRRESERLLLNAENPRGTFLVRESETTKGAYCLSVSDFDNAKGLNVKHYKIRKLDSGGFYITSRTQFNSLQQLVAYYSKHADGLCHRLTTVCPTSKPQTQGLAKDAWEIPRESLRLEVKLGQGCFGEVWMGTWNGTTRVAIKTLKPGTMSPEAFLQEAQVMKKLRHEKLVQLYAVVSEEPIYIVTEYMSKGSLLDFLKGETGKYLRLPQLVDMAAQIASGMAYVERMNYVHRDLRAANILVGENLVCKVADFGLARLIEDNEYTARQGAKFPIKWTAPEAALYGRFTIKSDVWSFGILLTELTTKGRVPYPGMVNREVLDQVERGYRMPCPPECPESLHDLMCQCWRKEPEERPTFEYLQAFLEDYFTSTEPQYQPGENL
Experiment: Inhibition of recombinant SRC
Details: read-out: IC50 (converted)

# chemical smiles, assayed system, IC50 / µM
data = [
    ("COc1cc(O)c(C(=O)O)c(-c2cc(O)c(O)cc2C)c1", "Proto-oncogene tyrosine-protein kinase Src (Homo sapiens)", 28.6),
    ("Cc1cc(O)cc2oc(=O)c3c(O)cc(O)cc3c12", "Proto-oncogene tyrosine-protein kinase Src (Homo sapiens)", 17),
    ("COc1cc(O)c(C(=O)O)c(C2=C(C)C[C@@H](O)C2=O)c1", "Proto-oncogene tyrosine-protein kinase Src (Homo sapiens)", 16.5),
    ("O=C1C[C@H](O)[C@@H]2c3c(ccc(O)c31)-c1ccc(O)c3c1[C@@]2(O)CCC3=O", "Proto-oncogene tyrosine-protein kinase Src (Homo sapiens)", 5.96),
    ("COc1cc(O)c2c(=O)oc3cc(O)cc(C)c3c2c1", "Proto-oncogene tyrosine-protein kinase Src (Homo sapiens)", 4.41),
    ("Cc1cc(O)c(O)cc1-c1cc(O)cc(O)c1C(=O)O", "Proto-oncogene tyrosine-protein kinase Src (Homo sapiens)", 17),
    ("Cc1cc(O)cc2oc(=O)c3c(O)cc(OS(=O)(=O)O)cc3c12", "Proto-oncogene tyrosine-protein kinase Src (Homo sapiens)", 16.6),
    ("COc1cc(O)c2c(=O)oc3c(O)c(O)cc(C)c3c2c1", "Proto-oncogene tyrosine-protein kinase Src (Homo sapiens)", 4.86),
]
